testSystem: VEGF165 (recombinant human vascular endothelial growth factor, 165 aa form) (Homo sapiens, UniProt P15692-4 P15692-4:27-191)
Sequence (P15692 other isoform, or with tags, fused parts or gaps): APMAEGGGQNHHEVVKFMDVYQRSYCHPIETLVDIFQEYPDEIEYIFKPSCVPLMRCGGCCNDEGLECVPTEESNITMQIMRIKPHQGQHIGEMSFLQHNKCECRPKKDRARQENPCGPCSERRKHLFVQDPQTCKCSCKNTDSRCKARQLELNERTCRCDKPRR
methodDescription: inhibition; VEGF receptor binding; single value printed in Ki column
protocolConditions: tags: gift from N. Ferrara, Genentech; chain copies: 2 (dimer, stated)
pKi: −log10 of the molar value.

- binder: "ACCCUGAUGGUAGACGCCGGGGUG (ssRNA, 2'-NH2 pyrimidines) [NX-107]"
  pKi: 9.00

Data credit: patent US5811533
